- System Under Test: T1, IFN-αWA (human, UniProt P05015 24-189)
- T1 construct: Recombinant, HEK293; also called IFN-α16
- Protocol: ProteOn SPR, cell supernatant;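 further: each binding measurement used just a single antigen concentration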
In this section we review reported Kd values for a set of binders.
Write the number in nM without appending the unit.

IFWM3415 (antibody, IgG1, V domains shown, mAb; IgG1/kappa said of the parent and of selected mAbs; also called IFWB3150) VH: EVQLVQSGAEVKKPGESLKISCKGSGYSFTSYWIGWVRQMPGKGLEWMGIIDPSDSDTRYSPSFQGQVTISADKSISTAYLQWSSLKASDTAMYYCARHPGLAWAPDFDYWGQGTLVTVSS VL: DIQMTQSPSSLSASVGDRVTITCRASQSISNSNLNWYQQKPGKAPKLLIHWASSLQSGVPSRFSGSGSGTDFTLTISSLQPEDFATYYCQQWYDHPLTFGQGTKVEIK : 0.044
IFWM3388 (antibody, IgG1, V domains shown, mAb; IgG1/kappa said of the parent and of selected mAbs; also called IFWB3123) VH: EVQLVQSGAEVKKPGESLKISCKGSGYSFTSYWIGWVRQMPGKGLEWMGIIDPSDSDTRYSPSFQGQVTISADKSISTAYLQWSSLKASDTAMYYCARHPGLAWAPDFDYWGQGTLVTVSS VL: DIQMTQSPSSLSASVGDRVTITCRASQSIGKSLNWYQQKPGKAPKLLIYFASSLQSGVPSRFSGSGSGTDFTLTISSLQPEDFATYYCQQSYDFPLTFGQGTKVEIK : 0.044

// below: Kd requested for another binder
Lab note: measured Kd of IFWM3391 (antibody, IgG1, V domains shown, mAb; IgG1/kappa said of the parent and of selected mAbs; also called IFWB3126) VH: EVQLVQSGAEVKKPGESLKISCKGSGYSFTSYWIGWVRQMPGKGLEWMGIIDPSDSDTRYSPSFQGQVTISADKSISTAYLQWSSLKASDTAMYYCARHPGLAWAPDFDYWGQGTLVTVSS VL: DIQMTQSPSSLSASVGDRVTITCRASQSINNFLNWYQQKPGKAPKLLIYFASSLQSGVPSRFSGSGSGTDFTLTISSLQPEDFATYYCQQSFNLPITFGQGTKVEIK was 0.042
